Attribution: patent US20220386594A1

Biological target: T1, Helicoverpa armigera chitin synthase (Helicoverpa armigera)
T1 construct: the tag is not part of the printed entry; also called CHS; target CHS antigen
T1 chain: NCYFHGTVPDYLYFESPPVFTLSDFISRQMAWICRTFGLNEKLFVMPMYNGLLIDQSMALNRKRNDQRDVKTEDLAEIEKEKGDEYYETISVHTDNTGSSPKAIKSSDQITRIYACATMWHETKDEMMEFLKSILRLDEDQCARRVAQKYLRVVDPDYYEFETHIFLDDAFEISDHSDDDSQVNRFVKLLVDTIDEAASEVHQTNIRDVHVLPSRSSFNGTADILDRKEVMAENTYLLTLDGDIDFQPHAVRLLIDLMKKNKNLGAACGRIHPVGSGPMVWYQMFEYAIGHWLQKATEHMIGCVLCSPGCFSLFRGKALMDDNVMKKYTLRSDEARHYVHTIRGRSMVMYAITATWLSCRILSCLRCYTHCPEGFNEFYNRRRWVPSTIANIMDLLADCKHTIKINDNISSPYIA
Assay: ELISA, plate coated with 10 ug/ml target protein, 2 ug/ml nanobody, anti-VHH-HRP, A450
measured.metric: binding result

- binder: "CHS24 (VHH, Llama nanobody, His-tagged, expressed in E. coli SHuffle T7; also called anti-CHS nanobody CHS24) VHH: QVQLQESGGGWVQPGGSLRLSCTISGLSRYYAMGWFRQVPGKERESVATISLRGGRTYYADSVEGRFTISRDNAKNTMYLQMNSLKPEDTAVYYCVADTTWGAPRSRYHYWGQGTQVTVSS"
  measured.metric: "binding result"
  recorded.measurement: "binds"
- binder: "CHS01A (VHH, Llama nanobody, His-tagged, expressed in E. coli SHuffle T7; also called CHS1a; anti-CHS nanobody CHS01A) VHH: QVQLQESGGGLVQAGGSLRLSCSASTSIASINAVGWYRQAPGKQRELVAVIVNGSTTRYADSVKGRFTISGDNAENTVPLLMSSLKPEDTAIYYCGARDLSGTYWGQGTQVTVSS"
  measured.metric: "binding result"
  recorded.measurement: "binds"
